These measurements were taken from patent US20210371516A1.

Please respond with reported Relative IC50 (fold of chimeric PTA-2358) for every item in the list.
molecular target: antigen on NCI-H187 classic small cell lung carcinoma cells (ATCC Number: CRL-5804) recognised by PTA-2358; assay: competition flow cytometry on NCI-H187 cells against mouse PTA-2358; NS0-derived
Hey, just send me the number, nothing else.

Problem: Complete the entry with Relative IC50 (fold of chimeric PTA-2358) for PTA-2358 VH5/VK2 IgG1 antibody (antibody, V domains shown) VH: EVQLVQSGAEVKKPGASVKVSCTASGFNIKDYYMHWVRQAPGQGLEWIGWIDPGNGDTECAPKFQGRATITADTSISTAYMELSRLRSDDTAVYYCNAPYYSGSSHFDYWGQGTTVTVSS VL: DIVLTQSPDSLAVSLGERATINCRASKSVSASGYSFLHWYQQKPGQPPKLLIYLASNLESGVPDRFSGSGSGTDFTLTISSLQAEDVATYYCQHSRELRTFGQGTKLEIK
Result: 1.11

Problem: Hello, please tell me recorded Relative IC50 (fold of chimeric PTA-2358) for this one: PTA-2358 VH3/VK1 IgG1 antibody (antibody, V domains shown) VH: EVQLVQSGAEVKKPGASVKLSCTASGFNIKDYYMHWVRQAPGQGLEWIGWIDPGNGDTECAPKFQGRATLTADTSINTAYLELSRLRSDDTAVYYCNAPYYSGSSHFDYWGQGTTVTVSS VL: DIVLTQSPDSLAVSLGERATINCRASKSVSASGYSFLHWYQQKPGQPPKLLIYLASNLESGVPDRFSGSGSGTDFTLTISSLQEEDVATYYCQHSRELRTFGQGTKLEIK
Result: 1.12

Problem: Determine from records and report Relative IC50 (fold of chimeric PTA-2358) for PTA-2358 VH4/VK2 IgG1 antibody (antibody, V domains shown) VH: EVQLVQSGAEVKKPGASVKLSCTASGFNIKDYYMHWVRQAPGQGLEWIGWIDPGNGDTECAPKFQGRATLTADTSISTAYLELSRLRSDDTAVYYCNAPYYSGSSHFDYWGQGTTVTVSS VL: DIVLTQSPDSLAVSLGERATINCRASKSVSASGYSFLHWYQQKPGQPPKLLIYLASNLESGVPDRFSGSGSGTDFTLTISSLQAEDVATYYCQHSRELRTFGQGTKLEIK
Result: 1.49

Problem: Specify measured Relative IC50 (fold of chimeric PTA-2358) for PTA-2358 VH2/VK2 IgG1 antibody (antibody, V domains shown) VH: EVQLVQSGAEVKKPGASVKLSCTASGFNIKDYYMHWVKQAPGQGLEWIGWIDPGNGDTECAPKFQGRATLTADTSINTAYLELSRLRSDDTAVYYCNAPYYSGSSHFDYWGQGTTVTVSS VL: DIVLTQSPDSLAVSLGERATINCRASKSVSASGYSFLHWYQQKPGQPPKLLIYLASNLESGVPDRFSGSGSGTDFTLTISSLQAEDVATYYCQHSRELRTFGQGTKLEIK .
Result: 1.03

Problem: Input PTA-2358 VH2/VK1 IgG1 antibody (antibody, V domains shown) VH: EVQLVQSGAEVKKPGASVKLSCTASGFNIKDYYMHWVKQAPGQGLEWIGWIDPGNGDTECAPKFQGRATLTADTSINTAYLELSRLRSDDTAVYYCNAPYYSGSSHFDYWGQGTTVTVSS VL: DIVLTQSPDSLAVSLGERATINCRASKSVSASGYSFLHWYQQKPGQPPKLLIYLASNLESGVPDRFSGSGSGTDFTLTISSLQEEDVATYYCQHSRELRTFGQGTKLEIK , output reported Relative IC50 (fold of chimeric PTA-2358).
Result: 1.03
